B1: TPR t1 (parent)
chain: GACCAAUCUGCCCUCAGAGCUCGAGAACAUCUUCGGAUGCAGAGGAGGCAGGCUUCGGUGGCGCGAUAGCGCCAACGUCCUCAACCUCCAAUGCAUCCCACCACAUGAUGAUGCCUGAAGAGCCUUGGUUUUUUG

variants of: B1; assay: polymerase ribozyme fitness, log enrichment relative to wild type (log ratio); higher = more active; in vitro selection for triplet polymerase activity
# maps each entry to its polymerase ribozyme fitness (log ratio)
Metric Name: polymerase ribozyme fitness (log ratio)

Mutation Spec: G10A U132A
Meas Value: 0.124
//
Mutation Spec: A37U G51C C88A
Meas Value: -5.1
//
Mutation Spec: A46G C73U C88A U130A
Meas Value: -3.03
//
Mutation Spec: A43C A46U
Meas Value: -2.91
